Just for reference, PubChem BioAssay (NCI) is where these values come from.

# Test system: UO-31 renal
# procedure_summary: NCI-60 one-dose screen, 48 h (100 = growth as untreated, 0 = no growth, -100 = all killed)
# condition_summary: 10 µM
About 83,000 compounds went through this panel and 20% of them were active in at least one assay; those are over-represented in the sample as a whole.
measured_quantity: growth (%)
Please reply with the bare figure in % and do not write the unit itself.

Look up growth for this compound: `CN(C)c1ccc(-c2cc(-c3cccc(NS(C)(=O)=O)c3)nc(N)c2C#N)cc1`
11.2

====

# System: SR leukemia
# procedure_summary: NCI-60 one-dose screen, 48 h (100 = growth as untreated, 0 = no growth, -100 = all killed)
# condition_summary: 10 µM
Compounds without any hit were thinned out: in the full panel of roughly 83,000, 20% have a hit.
measured_quantity: growth (%)
Give a bare numeral; the unit % is implied.

Take a look at these entries with their results.
COc1ccc(-c2nc3sc(C4CC4)nn3c2/C=C2/C(=O)Nc3ccc(OC)cc32)cc1; 26.5
FC(F)(F)c1ccc(-c2cnc(-n3cc(COCCN4CCCCC4)nn3)nc2NC2CCCCCC2)cc1; -37.4
O=C(Nc1ccc(Cl)cc1)N1NC(c2ccc(Cl)cc2)C=C1c1ccccc1 (stereo not given); 81.4
CN1CC[C@@H](c2c(O)cc(O)c3c(=O)cc(-c4ccccc4Cl)oc23)[C@@H](O)C1; -4.82

// below: growth requested for another compound
State its growth on SR leukemia: CCN1CCC2(CC1)OC(c1ccccc1)C(c1ccccc1)O2 (stereo not given)
96.9

====

# Lookup of reported growth keyed by entry
# Tested on: A498 renal
# procedure_summary: NCI-60 one-dose screen, 48 h (100 = growth as untreated, 0 = no growth, -100 = all killed)
# condition_summary: 10 µM
Compounds without any hit were thinned out: in the full panel of roughly 83,000, 20% have a hit. Calls of active or inactive are those of the source. The calls were made as follows: active = growth percent below 10; inactive = the rest.

O=C1/C(=C\c2ccc(Br)cc2)CN(C(=O)c2ccccc2F)C/C1=C\c1ccc(Br)cc1; 74.9% (inactive)
CCCCCCN(CCCCCC)CC(O)c1ccc2c3c(cccc13)CC2 (centres undefined); 24.5% (inactive)
COc1cc(-c2cc(/C=C3\C(=O)Nc4ccccc43)[nH]n2)cc(OC)c1OC; 46.5% (inactive)
COc1ccc(S(=O)(=O)NCCCNc2nccc(-c3c(-c4ccc(F)cc4)nc4sccn34)n2)cc1; 58.5% (inactive)
COc1cccc(C(=O)Nc2ccc(CN3CCc4nc5cc(OC)c(OC)cc5cc43)cc2)c1; 20.5% (inactive)

Now, please, on to the next molecule.
I am curious: what growth value has been reported for COc1cc(/C=C2\CCCC3=C2N=C2SC=NN2C3c2cc(OC)c(OC)c(OC)c2)cc(OC)c1OC (centres undefined) ?
24.5% (inactive)

====

# Tested on: UACC-257 melanoma
# procedure_summary: NCI-60 one-dose screen, 48 h (100 = growth as untreated, 0 = no growth, -100 = all killed)
# condition_summary: 10 µM
# Method: Cells are grown in 96 well plates and exposed to the test compound for 48 hours. Compounds are tested at a single concentration, which is 10^-5 M for most compounds. The reported endpoint is percent growth (GI% or GIPRCNT), where numbers from 0 - 100% represent growth inhibition, and numbers from -100% - 0 represent cell death. For example, a value of 40 represents 60% growth inhibition. A value of 0 means no net growth occurred over the course of the experiment. […]
About 83,000 compounds went through this panel and 20% of them were active in at least one assay; those are over-represented in the sample as a whole. The source made the active and inactive calls. The calls were made as follows: active = growth percent below 10; inactive = the rest.
measured_quantity: growth

Sample records with growth:
Cc1[nH]nc2c1C(c1cnn(C)c1)C(C#N)=C(N)O2 (centres undefined); 98.3% (inactive)
COc1cc(-c2cc(/C=C/C(=O)c3ccc4c(c3)OCO4)[nH]n2)cc(OC)c1OC; 107% (inactive)
COc1cc(NC(=O)c2sc3nc4c(cc3c2N)C(O)CCC4)cc(OC)c1 (centres undefined); 89.2% (inactive)

For the next question, use this compound.
I'd like to know its growth. The compound in question is COc1ccc2nc3cc(Cl)ccc3c(NCCNCC(C)O)c2c1 (centres undefined)
30.2% (inactive)
